Kindly state pEC50 for each of the entries shown.
# measured-target: Glucocorticoid receptor (Homo sapiens, UniProt P04150)
# Sequence (P04150 whole entry): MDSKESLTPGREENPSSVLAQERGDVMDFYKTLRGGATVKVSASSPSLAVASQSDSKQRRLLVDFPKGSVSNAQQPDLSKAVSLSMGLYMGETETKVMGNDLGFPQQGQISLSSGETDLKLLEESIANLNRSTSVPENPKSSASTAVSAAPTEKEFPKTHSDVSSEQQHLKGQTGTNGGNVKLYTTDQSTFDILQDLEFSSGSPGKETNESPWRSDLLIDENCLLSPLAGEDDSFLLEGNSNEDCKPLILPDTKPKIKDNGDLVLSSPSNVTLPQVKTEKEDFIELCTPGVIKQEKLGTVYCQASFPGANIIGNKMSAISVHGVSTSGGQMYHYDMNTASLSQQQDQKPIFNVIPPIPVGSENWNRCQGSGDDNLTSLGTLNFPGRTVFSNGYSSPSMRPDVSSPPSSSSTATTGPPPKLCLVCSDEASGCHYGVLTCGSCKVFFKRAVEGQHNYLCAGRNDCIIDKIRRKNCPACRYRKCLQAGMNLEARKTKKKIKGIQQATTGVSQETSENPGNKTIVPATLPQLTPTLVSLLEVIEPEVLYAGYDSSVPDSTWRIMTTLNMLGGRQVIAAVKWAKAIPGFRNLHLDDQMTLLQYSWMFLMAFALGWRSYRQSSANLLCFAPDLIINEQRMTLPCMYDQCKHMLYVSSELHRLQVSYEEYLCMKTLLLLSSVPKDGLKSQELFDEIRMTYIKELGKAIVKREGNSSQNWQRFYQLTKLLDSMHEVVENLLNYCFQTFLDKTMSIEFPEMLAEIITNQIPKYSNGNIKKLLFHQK
# assay: Inhibition of GR-mediated tyrosine amino transferase activity in human HepG2 cells
# Assay type: cell-based
In plain terms, pEC50 is the concentration in mol/L turned into minus its base-10 logarithm.

If you can, please state the reported pEC50 value of C[C@]12Cc3cnn(-c4ccc(F)cc4)c3C=C1CCC[C@@H]2[C@H](O)c1csc2ccccc12 .
6.45

If you can, please state the reported pEC50 value of C[C@]12Cc3cnn(-c4ccc(F)cc4)c3C=C1CCC[C@@H]2[C@H](O)c1ccc(F)nc1 .
5.35

If you can, please state the reported pEC50 value of C[C@]12Cc3cnn(-c4ccc(F)cc4)c3C=C1CCC[C@@H]2[C@@H](O)c1ccc(Cl)s1 .
5.97

====

# measured-target: Glucocorticoid receptor (Homo sapiens, UniProt P04150)
Kindly state IC50 for each of the entries shown.
Remember to put the unit after the number in your answer.

If you can, please state the reported IC50 value of C[C@]12Cc3cnn(-c4ccc(F)cc4)c3C=C1CCC[C@@H]2[C@@H](O)c1cccs1 .
7.1 nM

If you can, please state the reported IC50 value of C[C@]12Cc3cnn(-c4ccc(F)cc4)c3C=C1CCC[C@@H]2[C@H](O)c1ccc(F)nc1 .
9.1 nM

If you can, please state the reported IC50 value of C[C@]12Cc3cnn(-c4ccc(F)cc4)c3C=C1CCC[C@@H]2[C@@H](O)c1ccc(F)nc1 .
13.6 nM
